Reference source: ChEMBL document CHEMBL3243930

Tested on: Columba livia
Assay: Potency index, ratio of I50 for MTX to I50 for compound against pigeon liver dihydrofolate reductase
measured endpoint: Ratio
Answer with the value's number alone.

# count of solved cases: 7
CCN(Cc1cnc2nc(N)nc(N)c2n1)c1ccc(C(=O)N[C@@H](CCC(=O)O)C(=O)O)cc1; 1
Nc1nc(N)c2nc(CNc3ccc(C(=O)NC(CCCCC(=O)O)C(=O)O)cc3)cnc2n1 (stereo not drawn); 0.5
CN(Cc1cnc2nc(N)c([N+](=O)[O-])c(N)c2n1)c1ccc(C(=O)N[C@@H](CCC(=O)O)C(=O)O)cc1; 1400
Nc1nc(N)c2nc(CNc3ccc(CCC(=O)N[C@@H](CCC(=O)O)C(=O)O)cc3)cnc2n1; 33
Nc1nc(N)c2nc(CNc3ccc(CC(=O)N[C@@H](CCC(=O)O)C(=O)O)cc3)cnc2n1; 15
Nc1nc(N)c2nc(CN(Cc3ccccc3)c3ccc(C(=O)N[C@@H](CCC(=O)O)C(=O)O)cc3)cnc2n1; 310
CN(Cc1cnc2nc(N)c(Br)c(N)c2n1)c1ccc(C(=O)N[C@@H](CCC(=O)O)C(=O)O)cc1; 190

# evaluate next
[ask] What does the data say about its Ratio? Entry: CN(CCCCC(=O)N[C@@H](CCC(=O)O)C(=O)O)Cc1cnc2nc(N)nc(N)c2n1
[reply] 770

* * *

Assay: Inhibition of pigeon liver dihydrofolate reductase
Design: species or system Columba livia
Conditions: read-out: I50
measured endpoint: pIC50
Value format note: pIC50 is -log10 of concentration (mol/L); just state the number.

Nc1nc(N)c2nc(CN(c3ccccc3)c3ccc(C(=O)N[C@@H](CCC(=O)O)C(=O)O)cc3)cnc2n1; 6.55
CCN(Cc1cnc2nc(N)nc(N)c2n1)c1c(Cl)cc(C(=O)N[C@@H](CCC(=O)O)C(=O)O)cc1Cl; 7.30

# evaluate next
[ask] What does the data say about its pIC50? Entry: Nc1nc(N)c2nc(CNc3ccc(C(=O)N[C@@H](CCC(=O)O)C(=O)O)cc3)cnc2n1 [AMINOPTERIN]
[reply] 7.59

* * *

Measured pKa accompanies every entry in the list below.
Assay: Dissociation constant, pKa of the compound
Assay type: physicochemical
Answer with the value's number alone.

CN(Cc1cnc2nc(N)c([N+](=O)[O-])c(N)c2n1)c1ccc(C(=O)N[C@@H](CCC(=O)O)C(=O)O)cc1; 4.3

# evaluate next
[ask] What does the data say about its pKa? Entry: CN(Cc1cnc2nc(N)c(Br)c(N)c2n1)c1ccc(C(=O)N[C@@H](CCC(=O)O)C(=O)O)cc1
[reply] 5.1

* * *

Assay: Inhibition of pigeon liver dihydrofolate reductase
Parameters: species or system Columba livia
Details: read-out: I50
Measured pIC50 accompanies every entry in the list below.
Value format note: pIC50 is -log10 of concentration (mol/L); just state the number.

Nc1nc(N)c2nc(COc3ccc(C(=O)N[C@@H](CCC(=O)O)C(=O)O)cc3)cnc2n1; 6.29
CCN(Cc1cnc2nc(N)nc(N)c2n1)c1ccc(C(=O)N[C@@H](CCC(=O)O)C(=O)O)cc1; 7.35
CN(Cc1ccc(C(=O)N[C@@H](CCC(=O)O)C(=O)O)cc1)Cc1cnc2nc(N)nc(N)c2n1; 6.12
Nc1nc(N)c2nc(CNc3ccc(C(=O)N[C@@H](CCC(=O)O)C(=O)O)nc3)cnc2n1; 7.52
CN(Cc1cnc2nc(N)c(Br)c(N)c2n1)c1ccc(C(=O)N[C@@H](CCC(=O)O)C(=O)O)cc1; 5.60
CN(Cc1cnc2nc(N)c([N+](=O)[O-])c(N)c2n1)c1ccc(C(=O)N[C@@H](CCC(=O)O)C(=O)O)cc1; 4.42
Nc1nc(N)c2nc(CNc3ccc(CC(=O)N[C@@H](CCC(=O)O)C(=O)O)cc3)cnc2n1; 6.42

# evaluate next
[ask] What does the data say about its pIC50? Entry: CN(Cc1cnc2nc(N)cc(N)c2n1)c1ccc(C(=O)N[C@@H](CCC(=O)O)C(=O)O)cc1
[reply] 7.20
